- Test system: HEK-293T
- Protocol summary: Multiplex assay against HEK293T
- Format: toxicity, cell-based
- Settings: human, 24 h, 10 µM, compound concentration 10 uM, replicate 1
Labelling: Population Apoptotic (%) reported below 50% becomes true (1); at or above becomes false (0).

Use the examples below as a reference point.
>  <Compound>
C=CCN1C[C@H](C(=O)N(CCCN(C)C)C(=O)NCC)C[C@@H]2c3cccc4[nH]cc(c34)C[C@H]21 [CABERGOLINE]

>  <Tgt>
HEK-293T

>  <Cat>
true (1)

$$$$
>  <Compound>
OCCCNc1cc(-c2ccnc(Nc3cccc(Cl)c3)n2)ccn1

>  <Tgt>
HEK-293T

>  <Cat>
false (0)

$$$$

is_below(Population Apoptotic (%), 50%) for CC(C)(O)C(=O)N1CCN(c2ccc(C(F)(F)F)c(C3=C(c4c[nH]c5ccccc45)C(=O)NC3=O)c2)CC1 ? true (1)

API: query returns whether the compound falls strictly under 50% in Population Apoptotic (%). Query: COc1cc(OC2CCN(C(C)=O)CC2)ccc1C(=O)N1CCC(N2C(=O)OCc3ccccc32)CC1 true (1)

Here's an entry: O=C(O)CCC/C=C\CC1C(O)CC(O)C1/C=C/C(O)COc1cccc(Cl)c1 (configuration not stated) [CLOPROSTENOL] . Is its Population Apoptotic (%) below 50%? true (1)

Quick check: does COc1ccc2c(c1OCc1ccccc1)C[C@@H](C(=O)O)N(C(=O)C(c1ccccc1)c1ccccc1)C2 [OLODANRIGAN] have Population Apoptotic (%) under 50%? true (1)

Lab log: compare recorded Population Apoptotic (%) with 50%; is it strictly lower for COC(c1ccccc1)(c1ccccc1)[C@H](Oc1nc(C)cc(C)n1)C(=O)O [AMBRISENTAN] ? true (1)

Decide: Population Apoptotic (%) of CC(C)(C)c1ccc(CSc2cnn(C(C)(C)C)c(=O)c2Cl)cc1 [PYRIDABEN] strictly below 50%? true (1)

* * *

- System: U2OS
- Protocol summary: Multiplex assay against U2OS
- Format: toxicity, cell-based
- Settings: human, 12 h, 1 µM, compound concentration 1 uM, replicate 2
Each record here notes measured Population Tubulin-Different-Phenotype (%).
Provide only the numeric value, understood in %.

In the examples that follow, each entry is paired with its recorded Population Tubulin-Different-Phenotype (%).
>  <Compound>
COc1ccc2c(c1OCc1ccccc1)C[C@@H](C(=O)O)N(C(=O)C(c1ccccc1)c1ccccc1)C2

>  <Measured number>
2

$$$$
>  <Compound>
C[C@@H]1CC(=O)Nc2cccc(-c3ccc4c(c3)c(-c3cnn(C)c3)nn4C)c2N1

>  <Measured number>
2

$$$$
>  <Compound>
COc1ccc2[nH]c(I)c(CCNC(C)=O)c2c1

>  <Measured number>
2

$$$$

CN1CCC(C(=O)c2cccc(NC(=O)c3c(F)cc(F)cc3F)n2)CC1 has a reported Population Tubulin-Different-Phenotype (%) of 6

Entry N[C@](CC1c2ccccc2Oc2ccccc21)(C(=O)O)[C@H]1C[C@@H]1C(=O)O — recorded Population Tubulin-Different-Phenotype (%) = 3

// Population Tubulin-Different-Phenotype (%) lookup, compound = Cc1nn(C)c2nc(NNC(=O)Nc3cc(Cl)nc(Cl)c3)cc(C(C)C)c12 , result: 7

Population Tubulin-Different-Phenotype (%) for O=c1ccc2ccc(OCCCCN3CCN(c4cccc5sccc45)CC3)cc2[nH]1 is 30

For this compound ( O=C(O)CCC/C=C\CC1C(O)CC(O)C1/C=C/C(O)COc1cccc(Cl)c1 (centres undefined) ), measured Population Tubulin-Different-Phenotype (%) is 2

For record CCCCC[C@H](O)/C=C/[C@H]1[C@H](O)CC(=O)[C@@H]1CCCCCCC(=O)O the listed Population Tubulin-Different-Phenotype (%) is 6
